Ref: patent EP4671273A1

- Target entity: T1, Recombinant hIL-21-Fc (AcroBiosystems) (human, UniProt Q9HBE4 30-162)
- T1 construct: bought; also called rhIL-21; not shown: Fc of the bought reagent, not described
- T1 sequence (Q9HBE4 30-162): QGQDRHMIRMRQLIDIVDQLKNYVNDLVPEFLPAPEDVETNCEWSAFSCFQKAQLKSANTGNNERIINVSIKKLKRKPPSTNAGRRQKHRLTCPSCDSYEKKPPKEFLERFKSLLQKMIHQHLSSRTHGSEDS
- Protocol details: SPR, Fab on captured rhIL-21-Fc

Binder	kon
ZAP122m19 Fab (Fab, V domains shown, Fab) VH: QVQLQESGPGLVKPSETLSLTCTVSGGSISSDFWGWIRQPPGKGLEWIGYISSRGSTNYNPSLKRRVTISVDTSRNQFSLKLSSVTAADTAVYYCAASAGVTDFDFWGQGTLVTVSS VL: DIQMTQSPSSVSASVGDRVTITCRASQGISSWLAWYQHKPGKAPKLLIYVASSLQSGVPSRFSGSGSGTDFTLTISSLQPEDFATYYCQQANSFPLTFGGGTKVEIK	127000 M⁻¹ s⁻¹
ZAP122m20 Fab (Fab, V domains shown, Fab) VH: QVQLQESGPGLVKPSETLSLTCTVSGGSISSDFWGWIRQPPGKGLEWIGYISSRGSTNYNPSLKRRVTISVDTSRNQFSLKLSSVTAADTAVYYCARAAGVTDFDFWGQGTLVTVSS VL: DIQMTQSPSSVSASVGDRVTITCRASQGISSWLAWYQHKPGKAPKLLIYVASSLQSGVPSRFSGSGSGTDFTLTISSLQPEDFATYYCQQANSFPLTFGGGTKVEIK	446000 M⁻¹ s⁻¹
ZAP122m25 Fab (Fab, V domains shown, Fab) VH: QVQLQESGPGLVKPSETLSLTCTVSGGSISSDFWGWIRQPPGKGLEWIGYISSRGSTNYNPSLKRRVTISVDTSRNQFSLKLSSVTAADTAVYYCARSAGVTDADFWGQGTLVTVSS VL: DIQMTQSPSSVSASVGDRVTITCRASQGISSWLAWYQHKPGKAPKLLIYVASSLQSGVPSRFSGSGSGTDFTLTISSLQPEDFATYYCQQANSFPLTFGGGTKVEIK	105000 M⁻¹ s⁻¹
ZAP122m1 Fab (Fab, V domains shown, Fab) VH: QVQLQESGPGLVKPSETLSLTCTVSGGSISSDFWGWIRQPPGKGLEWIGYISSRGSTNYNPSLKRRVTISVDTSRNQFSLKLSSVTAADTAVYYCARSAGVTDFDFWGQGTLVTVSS VL: DIQMTQSPSSVSASVGDRVTITCRASQGISSWLAWYYHKPGKAPKLLIYVASSLQSGVPSRFSGSGSGTDFTLTISSLQPEDFATYYCQQANSFPLTFGGGTKVEIK	369000 M⁻¹ s⁻¹
ZAP122m15 Fab (Fab, V domains shown, Fab) VH: QVQLQESGPGLVKPSETLSLTCTVSGGSISSDFWGWIRQPPGKGLEWIGYIYSRGSTNYNPSLKRRVTISVDTSRNQFSLKLSSVTAADTAVYYCARSAGVTDFDFWGQGTLVTVSS VL: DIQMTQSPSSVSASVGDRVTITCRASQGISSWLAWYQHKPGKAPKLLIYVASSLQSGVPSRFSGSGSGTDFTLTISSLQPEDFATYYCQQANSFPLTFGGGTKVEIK	574000 M⁻¹ s⁻¹
